Reported log10 of IC50 values follow for various molecules
- measured-on: L-SIGN (Homo sapiens)
- Construct: L-SIGN 3G-ECD (amino acids 78 to 399)
- Sequence (Q9H2X3 78-399): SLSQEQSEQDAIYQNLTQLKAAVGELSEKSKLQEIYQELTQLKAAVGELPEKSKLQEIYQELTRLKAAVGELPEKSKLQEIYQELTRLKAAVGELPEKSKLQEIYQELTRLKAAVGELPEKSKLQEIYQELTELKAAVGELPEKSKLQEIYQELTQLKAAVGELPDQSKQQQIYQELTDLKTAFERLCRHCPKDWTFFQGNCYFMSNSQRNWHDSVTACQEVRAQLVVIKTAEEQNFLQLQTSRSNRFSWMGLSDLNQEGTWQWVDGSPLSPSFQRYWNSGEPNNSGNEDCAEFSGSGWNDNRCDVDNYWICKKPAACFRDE
- run-description: SPR binding inhibition (competition) assay on immobilized SARS-CoV-2 Spike surface, L-SIGN
- condition-summary: SPR, Spike functionalized chip, L-SIGN 20 μM coinjected with ligand, pH 8, duplicates
Could you please treat all values as log10 of IC50 in µM?

Example entries begin here.
molecule: COc1nc(NCc2cn([C@@H]3[C@@H](OCCCl)O[C@H](CO)[C@@H](O)[C@@H]3O)nn2)nc(OC)n1
measured-number: 2.66

molecule: OC[C@H]1O[C@H](OCCCl)[C@@H](n2cc(CNc3ncc[nH]3)nn2)[C@@H](O)[C@@H]1O
measured-number: 1.26

molecule: O=c1nccc(NCc2cn([C@@H]3[C@@H](OCCCl)O[C@H](CO)[C@@H](O)[C@@H]3O)nn2)[nH]1
measured-number: 2.11

molecule: OC[C@H]1O[C@H](OCCCl)[C@@H](n2cc(CNc3ccccn3)nn2)[C@@H](O)[C@@H]1O
measured-number: 2.00

Entry N=C(N)NCc1cn([C@@H]2[C@@H](OCCCl)O[C@H](CO)[C@@H](O)[C@@H]2O)nn1 [Man84, reference compound] ; log10 of IC50 = 1.28

###

- measured-on: L-SIGN (Homo sapiens)
- Construct: L-SIGN 3G-ECD (amino acids 78 to 399); made in house
- run-description: SPR binding inhibition (competition) assay on immobilized SARS-CoV-2 Spike surface, L-SIGN
- condition-summary: L-SIGN vs DC-SIGN, SPR inhibition on Spike surface
Values of Selectivity = (IC50 [DC-SIGN]/IC50 [L-SIGN]) greater than or equal to 50 map to met; values below map to not met.

compound: N=C(N)NCc1cn([C@@H]2[C@@H](OCCCl)O[C@H](CO)[C@@H](O)[C@@H]2O)nn1 [Man84, reference compound]
assigned-label: met
--
compound: OC[C@H]1O[C@H](OCCCl)[C@@H](n2cc(CNC3=NCCN3)nn2)[C@@H](O)[C@@H]1O
assigned-label: met
--
compound: OC[C@H]1O[C@H](OCCCl)[C@@H](n2cc(CNC3=NCCCN3)nn2)[C@@H](O)[C@@H]1O
assigned-label: met
--
compound: O=c1nccc(NCc2cn([C@@H]3[C@@H](OCCCl)O[C@H](CO)[C@@H](O)[C@@H]3O)nn2)[nH]1
assigned-label: not met

Query: hey, is Selectivity = (IC50 [DC-SIGN]/IC50 [L-SIGN]) for this one >= 50? OC[C@H]1O[C@H](OCCCl)[C@@H](n2cc(CNc3ccccn3)nn2)[C@@H](O)[C@@H]1O
Reply: not met
